Recorded values, source patent US20220315624A1.

test system: E. faecalis ATCC 29212 VSE; assay: MIC broth microdilution; type: cell-based; details: Enterococcus faecalis, ATCC29212; E. faecalis ATCC 29212 VSE; CAMHB; read-out: MIC
result_type: MIC (µg/mL)
Write the answer as a number in µg/mL, unit excluded.

{"columns": ["molecule", "MIC [µg/mL]"],
 "data": [
  ["C=C(NC(=O)c1csc(C2=N[C@@H]3c4csc(n4)[C@H]4NC(=O)c5csc(n5)[C@H]([C@](C)(O)[C@@H](C)O)NC(=O)C5CSC(=N5)/C(=C/C)NC(=O)[C@H]([C@@H](C)O)NC(=O)c5csc(n5)[C@]3(CC2)NC(=O)[C@H](C)NC(=O)C(=C)NC(=O)[C@H](C)NC(=O)[C@H]([C@@H](C)CC)N[C@@H]2C=Cc3c([C@H](C)O)cc(nc3[C@H]2O)C(=O)O[C@@H]4C)n1)C(=O)NC(=CNC(=O)c1cccc(/C=N/OCCO)c1)C(N)=O", 0.5],
  ["C=C(NC(=O)c1csc(C2=N[C@@H]3c4csc(n4)[C@H]4NC(=O)c5csc(n5)[C@H]([C@](C)(O)[C@@H](C)O)NC(=O)C5CSC(=N5)/C(=C/C)NC(=O)[C@H]([C@@H](C)O)NC(=O)c5csc(n5)[C@]3(CC2)NC(=O)[C@H](C)NC(=O)C(=C)NC(=O)[C@H](C)NC(=O)[C@H]([C@@H](C)CC)N[C@@H]2C=Cc3c([C@H](C)O)cc(nc3[C@H]2O)C(=O)O[C@@H]4C)n1)C(=O)NC(=CNC(=O)c1cccc(/C=N/OC(C)(C)C(=O)O)c1)C(N)=O", 2]
]}

Then this molecule:
Record `C=C(NC(=O)c1csc(C2=N[C@@H]3c4csc(n4)[C@H]4NC(=O)c5csc(n5)[C@H]([C@](C)(O)[C@@H](C)O)NC(=O)C5CSC(=N5)/C(=C/C)NC(=O)[C@H]([C@@H](C)O)NC(=O)c5csc(n5)[C@]3(CC2)NC(=O)[C@H](C)NC(=O)C(=C)NC(=O)[C@H](C)NC(=O)[C@H]([C@@H](C)CC)N[C@@H]2C=Cc3c([C@H](C)O)cc(nc3[C@H]2O)C(=O)O[C@@H]4C)n1)C(=O)NC(=CNC(=O)C(C)C)C(N)=O` . Reported MIC: 0.5
